- procedure.text: acute toxicity experiment and side effect observation in mice
- Format: in vivo, ICR mice
- test.context: both sexes, ICR, mouse, in vivo; single oral intragastric administration at 2.5, 5, 10, 20 mg/kg; 14 days observation; read-out: maximum tolerated dose (MTD)
Please respond with reported MTD at 14 days for every item in the list.
Could you give the number and then its unit, please?

Q. MTD at 14 days for C[C@H]1C[C@H]2[C@H](CC[C@@H]3[C@@H]2CC[C@]2(C)[C@@H](C(=O)Cn4ncnn4)CC[C@@H]32)C[C@]1(C)O ?
A. 20 mg/kg

Q. Quick check: MTD at 14 days of C[C@@]1(O)CC[C@H]2[C@H](CC[C@@H]3[C@@H]2CC[C@]2(C)[C@@H](C(=O)Cn4cc(C#N)cn4)CC[C@@H]32)C1 [Sage-217, reference compound] ?
A. 10 mg/kg

Q. MTD at 14 days for C[C@@H]1C[C@H](C(=O)Cn2ncnn2)[C@@]2(C)CC[C@H]3[C@@H](CC[C@@H]4C[C@](C)(O)[C@@H](C)C[C@@H]43)[C@H]12 ?
A. 20 mg/kg

Origin of measurements: patent EP4711377A1
